Listed here are substances together with their documented CD helical residues.
# PROTOCOL DESCRIPTION: Circular dichroism spectroscopy, helical residues per peptide chain
# Type: physicochemical
# STATED CONDITIONS: hPTH(1-31)NH2 analogs; calculated from [θ]222
Where no end group is shown, it is not given here.
Simply state the number, no unit and no words.

// below: answered substances
>  <SUBSTANCE>
SVSEIQLMHNLGKHLNSMEQVEWLRKKLQDV-NH2 [Arg^20→Gln]

>  <RECORDED MEASUREMENT>
7

$$$$
>  <SUBSTANCE>
SVSEIQLMHNLGKHLNSMERVEWLAKKLQDV-NH2 [Arg^25→Ala]

>  <RECORDED MEASUREMENT>
7

$$$$
>  <SUBSTANCE>
SVSEIQLMHNLGKHLNSMEKVEWLRKKLQDV-NH2 [Arg^20→Lys]

>  <RECORDED MEASUREMENT>
8

$$$$
>  <SUBSTANCE>
SVSEIQLMHNLGKHLNSMEAVEWLRKKLQDV-NH2 [Arg^20→Ala]

>  <RECORDED MEASUREMENT>
10

$$$$
>  <SUBSTANCE>
SVSEIQLMHNLGKHLNSAERVEWLRKKLQDV-NH2 [Met^18→Ala]

>  <RECORDED MEASUREMENT>
10

$$$$
>  <SUBSTANCE>
SVSEIQLMHNLGKHLNSMARVAWLRKKLQDV-NH2 [Glu^19,22→Ala,Ala]

>  <RECORDED MEASUREMENT>
9

$$$$

Request the reported CD helical residues associated with SVSEIQLMHNLGKHLNSMERVEWLRAKLQDV-NH2 [Lys^26→Ala]
7

Ref: patent US8143374B2
